Sourced from paper PMC10786891

# target: T1, EsCas13d, nuclease-dead (Eubacterium siraeum, UniProt B0MS50, R295A;H300A;R849A;H854A)
# T1 sequence: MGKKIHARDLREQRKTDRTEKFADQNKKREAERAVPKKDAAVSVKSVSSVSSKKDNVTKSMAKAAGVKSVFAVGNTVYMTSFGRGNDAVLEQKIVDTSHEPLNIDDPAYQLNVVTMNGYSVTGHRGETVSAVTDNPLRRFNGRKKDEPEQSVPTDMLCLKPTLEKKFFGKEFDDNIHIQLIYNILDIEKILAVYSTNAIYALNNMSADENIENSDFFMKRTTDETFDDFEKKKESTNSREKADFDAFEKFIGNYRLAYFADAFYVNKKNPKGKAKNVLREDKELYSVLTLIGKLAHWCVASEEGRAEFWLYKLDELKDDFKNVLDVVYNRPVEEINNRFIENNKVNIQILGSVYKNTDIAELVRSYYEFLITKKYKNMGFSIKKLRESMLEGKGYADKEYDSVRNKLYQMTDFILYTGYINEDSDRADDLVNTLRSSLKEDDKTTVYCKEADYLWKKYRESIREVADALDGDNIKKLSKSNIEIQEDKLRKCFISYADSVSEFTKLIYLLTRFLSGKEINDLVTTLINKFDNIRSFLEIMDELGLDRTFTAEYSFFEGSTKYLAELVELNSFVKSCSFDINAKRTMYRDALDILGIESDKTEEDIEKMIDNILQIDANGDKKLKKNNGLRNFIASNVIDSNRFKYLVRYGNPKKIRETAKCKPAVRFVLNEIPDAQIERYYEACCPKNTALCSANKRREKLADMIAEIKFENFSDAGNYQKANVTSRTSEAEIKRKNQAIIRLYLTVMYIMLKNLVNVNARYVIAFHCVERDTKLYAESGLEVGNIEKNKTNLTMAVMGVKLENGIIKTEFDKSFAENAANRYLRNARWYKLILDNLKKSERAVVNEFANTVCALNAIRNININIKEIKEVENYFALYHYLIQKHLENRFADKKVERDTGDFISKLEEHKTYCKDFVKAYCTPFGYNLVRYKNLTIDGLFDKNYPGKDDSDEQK
# procedure-summary: crRNA (strand 1, pre-loaded); Mg2+; 40 mM Tris-HCl pH 7.5, 150 mM NaCl, 6 mM MgCl2, 1 mM DTT, 0.1% Tween-20, 0.2 mg/ml BSA; 25 C; 10 min per concentration, then washed
# assay-setup: tags: His6-TwinStrep-SUMO cleaved; N-terminal SNAP kept (SNAP-Surface 488); label: 3' end held by stalled T7 RNA polymerase
Overview of reported pKd across a group of binders:
Schema: pKd number; meaning minus log10 of the concentration expressed in molar units.

Request: GET /values?readout=pKd&item= target 1 insU 3' of 13,insG 3' of 1 (mixed) RNA 1: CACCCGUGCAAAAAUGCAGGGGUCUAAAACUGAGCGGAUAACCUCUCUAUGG RNA 2: GGGAAUGGAUCCACAUCUACGAAUUCGUACCAUAGAGAGUGUUAUCCGCUCAGCCGAGAUCGGAAGAGCACACGU
Response: 7.93

Continuing:
Request: GET /values?readout=pKd&item= target 2 MT 5'PFS GAA 3'PFS UCC (mixed) RNA 1: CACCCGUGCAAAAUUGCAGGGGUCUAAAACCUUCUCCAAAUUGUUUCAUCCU RNA 2: GGGAAUGGAUCCACAUCUACGAAUUCGAAAGGAUGAAACAAUUUGGAGAAGUCCAGAUCGGAAGAGCACACGU
Response: 7.49

Request: // repeat for target 1 insG 3' of 19,insU 3' of 1 (mixed) RNA 1: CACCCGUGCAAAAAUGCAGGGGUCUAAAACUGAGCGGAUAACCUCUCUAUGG RNA 2: GGGAAUGGAUCCACAUCUACGAAUUCGUACCAUGAGAGAGGUUAUCCGCUCAUCCGAGAUCGGAAGAGCACACGU and report
Response: 7.20

Request: // repeat for target 2 MT 5'PFS GAU 3'PFS AUC (mixed) RNA 1: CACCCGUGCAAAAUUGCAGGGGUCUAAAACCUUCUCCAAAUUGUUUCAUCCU RNA 2: GGGAAUGGAUCCACAUCUACGAAUUCGAUAGGAUGAAACAAUUUGGAGAAGAUCAGAUCGGAAGAGCACACGU and report
Response: 7.98
